binding signal: recorded values
# targetUnderTest: ETS1 (Homo sapiens, UniProt P14921 1-441)
# Sequence: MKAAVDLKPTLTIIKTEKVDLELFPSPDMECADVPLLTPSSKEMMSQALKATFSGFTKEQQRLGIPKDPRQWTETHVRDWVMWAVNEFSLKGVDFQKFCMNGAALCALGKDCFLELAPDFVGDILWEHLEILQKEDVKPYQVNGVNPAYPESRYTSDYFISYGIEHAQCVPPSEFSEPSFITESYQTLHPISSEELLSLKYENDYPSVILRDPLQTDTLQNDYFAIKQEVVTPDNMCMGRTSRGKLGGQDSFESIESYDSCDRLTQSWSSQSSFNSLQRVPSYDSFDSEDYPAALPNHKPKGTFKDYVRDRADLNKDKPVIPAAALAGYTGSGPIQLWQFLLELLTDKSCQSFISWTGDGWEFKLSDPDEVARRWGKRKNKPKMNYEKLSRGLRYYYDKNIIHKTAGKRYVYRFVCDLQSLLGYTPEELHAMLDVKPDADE
# measurementProtocol: custom PBM; custom protein-binding microarray; buffer, salt, pH and temperature not stated; high values mean tight binding
# details: dsDNA, one strand shown
In all, about 1,300 sequences were measured (“log fluorescence intensity”: median about 8.3, highest 2% from about 12 on). For the sample, the highest values were picked, then their nearest neighbours and some sequences at random.

[ask] Could you share which binding signal value was measured for GCTGCTGCGGTGCATACCCCCCCGGATGTGACCCCGGTCTTGATTCGCTTGACGCTGCTG ?
[reply] 8.71 log fluorescence intensity

[ask] What value of measured binding signal is listed for GTGTATAGGAACCCATCCAACACACGTGTTAAAATGGTCTTGATTCGCTTGACGCTGCTG ?
[reply] 8.33 log fluorescence intensity

[ask] Item under review: CGGAAGTGTCGTAAACGTCGGATACCCGGTTCTTCTGTCTTGATTCGCTTGACGCTGCTG . Reported binding signal?
[reply] 8.31 log fluorescence intensity

[ask] What value of binding signal has been recorded for this entry: GGGTATAGGATCCCATCCAACACACGTGTTAAAATGGTCTTGATTCGCTTGACGCTGCTG
[reply] 8.44 log fluorescence intensity

[ask] Given the sequence GGAAAAAGGCCCAGGGAAACACCGGAAGTGGGCTTAGTCTTGATTCGCTTGACGCTGCTG , what is its reported binding signal?
[reply] 12.3 log fluorescence intensity

[ask] Dear colleague, I am looking for the recorded binding signal of the following sequence: AGAAAAAGGCCCAGGGTAACACCGGAAGTGGGCTTAGTCTTGATTCGCTTGACGCTGCTG
[reply] 11.9 log fluorescence intensity

[ask] Which measured binding signal value corresponds to GGAAAAAGGCCCAGGGTCACACCGGAAGTGGGCTTAGTCTTGATTCGCTTGACGCTGCTG ?
[reply] 11.9 log fluorescence intensity

[ask] Value lookup for binding signal; key = GCTGCTGCGGTGCATACCCCACCGGATGTGACCCCAGTCTTGATTCGCTTGACGCTGCTG
[reply] 10.1 log fluorescence intensity

[ask] Any idea what its binding signal is? The sequence is CACAATTTTTACAGTAATGGAGCACGCGTAACTCCTGTCTTGATTCGCTTGACGCTGCTG
[reply] 8.32 log fluorescence intensity

[ask] // binding signal lookup, key: GGAAAAAGGCCCAGGGGAACACCGGAAGTGGGCTTAGTCTTGATTCGCTTGACGCTGCTG
[reply] 12.1 log fluorescence intensity

[ask] Fill in: binding signal of GGTAAAAGGCCCAGGGTAACACCGGAAGTGGGCTTAGTCTTGATTCGCTTGACGCTGCTG is ___
[reply] 11.9 log fluorescence intensity

[ask] Suppose we examine the sequence GGAAAAAGGCCAAGGGTAACACCGGAAGTGGGCTTAGTCTTGATTCGCTTGACGCTGCTG ; what binding signal value has been reported?
[reply] 12 log fluorescence intensity

[ask] Entry under review: TAAAGCGAAGACGGTTGTGGTAGTTCCGGGTATTAAGTCTTGATTCGCTTGACGCTGCTG . Reported binding signal?
[reply] 8.48 log fluorescence intensity

[ask] Data request, read-out binding signal, for GGAAAAAGGCCCAGGGTAACACCTGAAGTGGGCTTAGTCTTGATTCGCTTGACGCTGCTG
[reply] 8.36 log fluorescence intensity

[ask] # binding signal lookup, item GTCTATAGGATCCCATCCAACACACGTGTTAAAATGGTCTTGATTCGCTTGACGCTGCTG
[reply] 8.42 log fluorescence intensity

[ask] Given the sequence GGAAAAAGGCCCATGGTAACACCGGAAGTGGGCTTAGTCTTGATTCGCTTGACGCTGCTG , what is its reported binding signal?
[reply] 11.9 log fluorescence intensity

[ask] Which value of binding signal has been reported for GGAAAAAGGCCCAAGGTAACACCGGAAGTGGGCTTAGTCTTGATTCGCTTGACGCTGCTG in the records?
[reply] 12.1 log fluorescence intensity
